Test system: Candida albicans
Assay Overview: Synergistic antifungal activity against Candida albicans ATCC 64124 assessed as compound MIC measured after 48 hrs in presence of ketoconazole by checkboard based microplate reader analysis
Type: functional
Below: a set of entries, each annotated with reported MIC.
Enter your answer as a number in µg/mL; do not include the unit.

As a guide, the following entries are already answered.
COc1ccc(C(=O)CCCN2CCC(O)(c3ccc(Br)cc3)CC2)cc1 :: 64
O=C(CCCN1CCC(O)(c2ccc(Br)cc2)CC1)c1ccccc1 :: 32

For the compound O=C(CCCN1CCC(O)(c2ccc(Br)cc2)CC1)c1ccc(Cl)cc1 , give its measured MIC value.
0.5

For the compound O=C(CCCN1CCC(O)(c2ccc(Br)cc2)CC1)c1ccc(F)cc1 [BROMPERIDOL] , give its measured MIC value.
64

For the compound O=C(CCCN1CCC(O)(c2ccc(Br)cc2)CC1)c1ccc(Br)cc1 , give its measured MIC value.
1
